Experimental system: stabilized FtsZ-GMPCPP polymers (Bacillus subtilis, UniProt P17865)
Construct: made in house
Sequence (P17865 whole entry): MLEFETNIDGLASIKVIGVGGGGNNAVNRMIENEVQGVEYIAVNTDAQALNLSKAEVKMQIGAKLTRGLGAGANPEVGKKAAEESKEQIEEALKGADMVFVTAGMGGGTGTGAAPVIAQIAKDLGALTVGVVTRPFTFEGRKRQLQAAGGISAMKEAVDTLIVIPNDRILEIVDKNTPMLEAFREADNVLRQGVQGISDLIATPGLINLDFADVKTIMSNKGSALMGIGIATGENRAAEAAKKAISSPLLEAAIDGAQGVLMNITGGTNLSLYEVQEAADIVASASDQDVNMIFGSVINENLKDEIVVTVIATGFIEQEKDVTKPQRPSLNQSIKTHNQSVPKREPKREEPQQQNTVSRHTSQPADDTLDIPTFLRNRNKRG
Protocol summary: Fluorescence anisotropy screen with probe (S)-2 at two compound concentrations
Assay type: binding
Test context: probe (S)-2 3 μM, compound 20 and 200 μM
Readout name: result of the anisotropy screen, in words

Recorded result of the anisotropy screen, in words, per entry:
| Smi | Result |
| --- | --- |
| NC(=O)c1cccc(NCc2cccc(Cl)c2)c1 | weak binders |
| NC(=O)c1ccc(NCc2cccc(Cl)c2)cc1 | weak binders |
| CN(Cc1cccc(Cl)c1)c1cccc(C(N)=O)c1 | weak binders |
| CCN(CC)CCNc1nc(/C=C/c2ccc(Cl)cc2)nc2cc3ccccc3cc12 | no evidence of binding |
| O=C(O)CCN(Cc1ccccc1)Cc1cccc(Sc2ccccc2)c1 | no evidence of binding |

Return reported result of the anisotropy screen, in words. Input molecule: CN(Cc1cccc(Cl)c1)c1ccc(C(N)=O)cc1 weak binders

Values were extracted from paper PMC8478281.
